experimental_details: folding stability dG unfold (combined trypsin and chymotrypsin); higher = more stable
reported_property: folding stability dG unfold (kcal/mol)
Report as a plain number; the unit kcal/mol is understood.

Problem: Could you tell me which folding stability dG unfold is on file for SAGGSAGGSAGMRIVIEVPEDTTVEELAKKLADLGYEVEIRVERDENGRLLVVIEIRPKDSAGGSAGGSAGG [r11_1050_TrROS_Hall] ?
Result: 2.8

Problem: Can you handle SAGNPVLLKRPFIDPENGEPVYELTLFDPESNIVTTLFFNSDGKVIAVAVAYVPPETDEVDIELSVFDGSAG [r5_747_TrMRF] next?
Result: 1.47

Problem: Can you handle SSPALDEKYTAKVDAKVTSPEGKPLATFTIDVLTEEEAKKKIEEFVKELAEKLGRPDLPVTISNITIERVSA [r9_376_JUSTAS] next?
Result: 0.679

Problem: Can you handle SAGGSAGGSAGGMTVTVEISIPVTVETSFFKPNKPYFKKKTINKKITIEIPNGEPLSLLSAGGSAGGSAGGS [r10_633_JUSTAS] next?
Result: 0.249

Problem: Can you handle SAGGSAGGSANQVKVEIEIPRMKMERDPDGGYQMEMRPVKIEIEAPMPEEQADDIAKDLIKSAGGSAGGSAG [r3_487_TrROS] next?
Result: 0.0639

Problem: Can you handle SAGGSTVSVVPFPDYLLVVTTDVRRTPVPDTDTVSTELTTTVTVIPLPDVPPPVLPFLDADGNPYYASAGGS [r8_46_TrMRF] next?
Result: 0.694

Problem: Can you handle SAGGSAGGSAGMIVAKVVEYDPETGEITIEVDGKKITLPLKNMKIKEVNGYLVIEFKEDDSAGGSAGGSAGG [r17_403_TrROS_Hall] next?
Result: 3.25

Problem: Can you handle KIVILEPGEEAELPGVKVIPVDGLRIREVEVNGKKILVIEMSEEEIENGNEEELEKLRELAEELGADEVILS [r1_438_TrROS_Hall] next?
Result: 1.14

Problem: Can you handle SAGGSAGGSALKPGEPITIIFLFKEPNGRPYIMVIEIEVNPDGGIKIKGMEMITLEDLDKISAGGSAGGSAG [r3_212_TrROS] next?
Result: 4.43

Problem: Can you handle SAGSPLTLSEKTSYDPSTGVTTRTFTFPDGTTRTTATVTVPGTGTLLTSTDFTQSPGTLTQSSGVAPLSAGG [r19_394_JUSTAS] next?
Result: 0.616

Problem: Can you handle SAGGSAGGSAGHRSVMVTVDDIAKENGIKIPPGSYLMVTVEGNKVKDIMIQPMKPKPEDPSAGGSAGGSAGG [r11_616_TrROS] next?
Result: -0.17

Problem: Can you handle SAGGSAGGSAGGSEGAPIRVTLTGTRTETRTRPDGSPVTDSGTDTVEFTLDLYDPEKSGSAGGSAGGSAGGS [r4_450_TrMRF] next?
Result: -0.363

Problem: Can you handle SAGGSAGGSISQIKSKIKKILEEKGLKPTKIVIKKTEKLKNKIKVEVEVEIGKGPKISMIIEIESAGGSAGG [r6_841_JUSTAS] next?
Result: 3.19

Problem: Can you handle SAGKMVKVEIVIDVPPEEITEEELKAILEEEAEEVEITFDEETGKITITVTVSEEEAEKLREALKELGASAG [r5_378_TrROS_Hall] next?
Result: 1.3

Problem: Can you handle SAGKIKPGQKIKIKITSIEKLKDGTIKIKAEIELEEKGYKITIEAEIKYDKKTKKLTIKVKIKIEPKPSAGG [r19_342_TrROS_Hall] next?
Result: 3.88

Problem: Can you handle SAGGSAGGSGGMMKVIVSVSPGEEAVEKVNKLVNETDLPPIEVIIIPHSPDDPIVVAILLLLLSAGGSAGGS [r12_649_JUSTAS] next?
Result: 2.73

Problem: Can you handle SAGGSAGGSAGWGWISVSITFEMEHYDEDGKPKHEHPMPMTIQIPVVRVDPKNGKLEPMPSAGGSAGGSAGG [r17_413_TrROS] next?
Result: 2.24

----------
experimental_details: folding stability dG unfold (combined trypsin and chymotrypsin); higher = more stable
So I've got a bunch of sequences here, and I need their folding stability dG unfold values.
Report as a plain number; the unit kcal/mol is understood.

Problem: Could you tell me which folding stability dG unfold is on file for SAGGSAGGSAGGSMTITYDKENKTLTIKLPNGKKVLTVNLENMTPEQLKELAKKLGLEVSAGGSAGGSAGGS [r4_49_TrROS_Hall] ?
Result: 3.44

Problem: Can you handle SAGGSASTVTRTRTIPGSGLTVEITETPLPDGTYSYTVTFYAPDSALKTTPKTAAPDELPEEELLSSAGGSA [r15_147_JUSTAS] next?
Result: 1.1

Problem: Can you handle SAGKNPGPVLILADGGEEGVKAVAYFPDGPLETEFPGSGDIAIVIPPGLTPSDVLKAAAVALKEAAESSAGG [r19_170_TrMRF] next?
Result: -0.337

Problem: Can you handle SAGGKKPKKLTPEQIEELAKALAPEGAEVKVEVVEVTEKTVVVKITVKDKETGEEKTIEITLPLPEESAGGS [r16_486_TrROS_Hall] next?
Result: 2.24

----------
experimental_details: folding stability dG unfold (combined trypsin and chymotrypsin); higher = more stable
If the reported folding stability dG unfold equals or exceeds 10 kJ/mol, assign true (1). If not, assign false (0).

Problem: Dear colleague, could you confirm whether SAGPPEPITWKIRNPKNGKKRKIQIWQPDEQMAVQIRDPNDGKPRREIPMPLEEARDLLKSDGFEVEPVSAG [r5_291_TrROS] has folding stability dG unfold at or above 10 kJ/mol?
Result: false (0)

Problem: Can you handle SAGGSAIFVVKIEPPNGNPITFMFWFKTPEEAESQVEEIAEQLPPDWKVEVEYIPAEDLKNGKPFFSAGGSA [r15_469_TrROS] next?
Result: false (0)

Problem: Can you handle SAGGSAGGSTALVYKNGVTVTFPVFFPDTAPAVVTLSIPSPEEAAAAVAALRAAGHAVTVEPLASAGGSAGG [r6_872_JUSTAS] next?
Result: false (0)

Problem: Can you handle SAGGSAGGSKKVKVTIEYDKETGVVKVTVEDPETGEKYTVTAKFEFDKNGKLVKVEVVSIEKESAGGSAGGS [r12_791_TrROS_Hall] next?
Result: true (1)

Problem: Can you handle SAGGKTISIEFYMPPGEPPPSIEEIAKELFPGYKDIKIKNIEIEDVEPDPDNGMKYVRVSFTIEVEPPSAGG [r13_10_TrROS] next?
Result: true (1)

Problem: Can you handle SAGGSAGGSAGGMVVKIKVDGKTITLSAEELKKNKDLLKELEKKGYKIVSIEVFEPEEESAGGSAGGSAGGS [r10_396_TrROS_Hall] next?
Result: false (0)

Problem: Can you handle SAGGMPVTLEIVLPNLHDVLGPEFFDALKNITVPNGTPIKKITVKPIGDKTVILIEVDSPEDAKDILGSAGG [r13_269_TrMRF] next?
Result: false (0)

Problem: Can you handle SAGGSAGGSLHPSQPLLVTVEVEVDPETGTVRLRVSVWVPGPRERLLERELEVPLHSLPEGALSAGGSAGGS [r12_145_TrMRF] next?
Result: false (0)

Problem: Can you handle SAGGSGKVIGFSFEVETPEEAEGLFKENRPDLDVKILEVKPEEGYVRLVAVDPDGKPHVFVVPIVGSAGGSA [r2_201_TrMRF] next?
Result: false (0)

Problem: Can you handle SAGGSAGGSAGIEIHVMEDPDGRWWLMITIKVKYKVRNPEDGDPIFEFEVTYTIMIWLKASAGGSAGGSAGG [r17_124_TrROS] next?
Result: true (1)

Problem: Can you handle SKKPKIKIEIEIVEITEVKYDKKTNKITVKVKVKIKIEVEVNGKKKKIEIEIPKNMTLEEILKKLKELLKSA [r9_656_TrROS_Hall] next?
Result: false (0)

----------
experimental_details: folding stability dG unfold from trypsin proteolysis; higher = more stable
So I've got a bunch of sequences here, and I need their folding stability dG unfold values.
Report as a plain number; the unit kcal/mol is understood.

Problem: Could you tell me which folding stability dG unfold is on file for SAGGLPPEIKVEISFTPDPATGKWRGTVTAFDPVTGKTVTVPVTSDTPEELRARLEAAAAAVAAALASAGGS [r8_480_JUSTAS] ?
Result: 3.03

Problem: Can you handle SAGMGIVEALRRELEAAGLDVRVSATVEPLPDLGYVLITVHVEVRNENGEWVPLGPLTILLPVEEAERLSAG [r5_413_TrMRF] next?
Result: 2.9

Problem: Can you handle SGSLSIEFSSTEPSSPGSITLSKLFPEPEADRATHTIKLPNSTIELEFDSAEDLIKNVEKLLKELGNPGKSA [r9_258_JUSTAS] next?
Result: 0.297

FYI, the data here is from the supplement of paper PMC12764529.
